Biological target: T1, GPC3 expressed on the cell surface of HepG2, Huh7 and Hep3B cells (human, UniProt P51654 25-554)
T1 construct: Endogenous GPC3 of human liver tumour cell lines; also called Glypican 3 protein on the cell surface; endogenously expressed GPC3
T1 sequence (P51654 25-554 limits assumed): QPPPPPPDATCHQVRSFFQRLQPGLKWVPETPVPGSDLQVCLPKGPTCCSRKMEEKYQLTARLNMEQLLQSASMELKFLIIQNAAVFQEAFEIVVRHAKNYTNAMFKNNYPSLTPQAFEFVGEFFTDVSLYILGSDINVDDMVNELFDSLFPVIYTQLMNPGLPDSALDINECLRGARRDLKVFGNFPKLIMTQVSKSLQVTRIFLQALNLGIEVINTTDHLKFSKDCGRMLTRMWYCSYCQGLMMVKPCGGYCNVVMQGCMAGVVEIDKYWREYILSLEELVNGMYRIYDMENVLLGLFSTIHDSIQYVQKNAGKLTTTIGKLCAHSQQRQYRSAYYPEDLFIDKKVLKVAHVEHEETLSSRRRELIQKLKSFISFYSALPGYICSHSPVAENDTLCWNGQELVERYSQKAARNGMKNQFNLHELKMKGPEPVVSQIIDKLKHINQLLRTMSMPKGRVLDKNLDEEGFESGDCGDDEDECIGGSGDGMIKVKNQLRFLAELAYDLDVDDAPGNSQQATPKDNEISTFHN
Assay: flow cytometry, Fab titrated on Hep3B cells
readoutType: EC50 (µg/mL)

* P17-15F8 Fab (Fab, V domains shown, Fab format) VH: EVQLVESGGGLVQPGGSLRLSCAASGFTFGNYAMSWVRQAPGKGLEWVSGVSGSGDGTYYADSVKGRFTISRDNSKNTLYLQMNSLRAEDTAVYYCAKEYDFGLGWMHYYYGMDVWGQGTTVTVSS VL: QSVLTQPPSVSGAPGQRVTISCTGSSSGYDVHWYQQLPGRAPKLLIYGSNNRPSGVPDRFSGSNSGTSASLAITGLQAEDEADYYCQSYDSSLNAIFGGGTKLTVL | 0.0104
